experimentNotes: total protein half-life in vivo (active degradation + dilution); higher = more stable protein
measurementConditions: E. coli NCM3722 delta-smpB; growth: N-lim chemostat; doubling time 6 h
readoutType: total protein half-life in vivo (h)
Number only, in h; omit the unit.

[[record]]
sequence = "MQLTSFTDYGLRALIYMASLPEGRMTSISEVTDVYGVSRNHMVKIINQLSRAGYVTAVRGKNGGIRLGKPASAIRIGDVVRELEPLSLVNCSSEFCHITPACRLKQALSKAVQSFLTELDNYTLADLVEENQPLYKLLLVE [P0AF63]"
experimentalresult = 5.26

[[record]]
sequence = "MNMKKLATLVSAVALSATVSANAMAKDTIALVVSTLNNPFFVSLKDGAQKEADKLGYNLVVLDSQNNPAKELANVQDLTVRGTKILLINPTDSDAVGNAVKMANQANIPVITLDRQATKGEVVSHIASDNVLGGKIAGDYIAKKAGEGAKVIELQGIAGTSAARERGEGFQQAVAAHKFNVLASQPADFDRIKGLNVMQNLLTAHPDVQAVFAQNDEMALGALRALQTAGKSDVMVVGFDGTPDGEKAVNDGKLAATIAQLPDQIGAKGVETADKVLKGEKVQAKYPVDLKLVVKQ"
experimentalresult = 6.26

[[record]]
sequence = "MIGRLLRGGFMTAIYAYLYIPIIILIVNSFNSSRFGINWQGFTTKWYSLLMNNDSLLQAAQHSLTMAVFSATFATLIGSLTAVALYRYRFRGKPFVSGMLFVVMMSPDIVMAISLLVLFMLLGIQLGFWSLLFSHITFCLPFVVVTVYSRLKGFDVRMLEAAKDLGASEFTILRKIILPLAMPAVAAGWVLSFTLSMDDVVVSSFVTGPSYEILPLKIYSMVKVGVSPEVNALATILLVLSLVMVIASQLIARDKTKGNTGDVK [P0AFK6]"
experimentalresult = 5.65

[[record]]
sequence = "MRYSKLTMLIPCALLLSACTTVTPAYKDNGTRSGPCVEGGPDNVAQQFYDYRILHRSNDITALRPYLSDKLATLLSDASRDNNHRELLTNDPFSSRTTLPDSAHVASASTIPNRDARNIPLRVDLKQGDQGWQDEVLMIQEGQCWVIDDVRYLGGSVHATAGTLRQSIENR"
experimentalresult = 6.06

[[record]]
sequence = "MSHRDTLFSAPIARLGDWTFDERVAEVFPDMIQRSVPGYSNIISMIGMLAERFVQPGTQVYDLGCSLGAATLSVRRNIHHDNCKIIAIDNSPAMIERCRRHIDAYKAPTPVDVIEGDIRDIAIENASMVVLNFTLQFLEPSERQALLDKIYQGLNPGGALVLSEKFSFEDAKVGELLFNMHHDFKRANGYSELEISQKRSMLENVMLTDSVETHKARLHNAGFEHSELWFQCFNFGSLVALKAEDAA"
experimentalresult = 3.28

[[record]]
sequence = "MVEDILAPGLRVVFCGINPGLSSAGTGFPFAHPANRFWKVIYQAGFTDRQLKPQEAQHLLDYRCGVTKLVDRPTVQANEVSKQELHAGGRKLIEKIEDYQPQALAILGKQAYEQGFSQRGAQWGKQTLTIGSTQIWVLPNPSGLSRVSLEKLVEAYRELDQALVVRGR [P0A9H1]"
experimentalresult = 4.88


Value of measured total protein half-life in vivo for the entry `MSKKIAVLITDEFEDSEFTSPADEFRKAGHEVITIEKQAGKTVKGKKGEASVTIDKSIDEVTPAEFDALLLPGGHSPDYLRGDNRFVTFTRDFVNSGKPVFAICHGPQLLISADVIRGRKLTAVKPIIIDVKNAGAEFYDQEVVVDKDQLVTSRTPDDLPAFNREALRLLGA` : 4.51

Value of measured total protein half-life in vivo for the entry MNPIVINRLQRKLGYTFNHQELLQQALTHRSASSKHNERLEFLGDSILSYVIANALYHRFPRVDEGDMSRMRATLVRGNTLAELAREFELGECLRLGPGELKSGGFRRESILADTVEALIGGVFLDSDIQTVEKLILNWYQTRLDEISPGDKQKDPKTRLQEYLQGRHLPLPTYLVVQVRGEAHDQEFTIHCQVSGLSEPVVGTGSSRRKAEQAAAEQALKKLELE [P0A7Y0] : 4.72

Value of measured total protein half-life in vivo for the entry MGNSDRKPGLIKRLWKWWRTPSRLALGTLLLIGFVGGIVFWGGFNTGMEKANTEEFCISCHEMRNTVYQEYMDSVHYNNRSGVRATCPDCHVPHEFVPKMIRKLKASKELYGKIFGVIDTPQKFEAHRLTMAQNEWRRMKDNNSQECRNCHNFEYMDTTAQKSVAAKMHDQAVKDGQTCIDCHKGIAHKLPDMREVEPGF [P0ABL5] : 5.22

Value of measured total protein half-life in vivo for the entry `MQENQQITKKEQYNLNKLQKRLRRNVGEAIADFNMIEEGDRIMVCLSGGKDSYTMLEILRNLQQSAPINFSLVAVNLDQKQPGFPEHVLPEYLEKLGVEYKIVEENTYGIVKEKIPEGKTTCSLCSRLRRGILYRTATELGATKIALGHHRDDILQTLFLNMFYGGKMKGMPPKLMSDDGKHIVIRPLAYCREKDIQRFADAKAFPIIPCNLCGSQPNLQRQVIADMLRDWDKRYPGRIETMFSAMQNVVPSHLCDTNLFDFKGITHGSEVVNGGDLAFDREEIPLQPACWQPEEDENQLDELRLNVVEVK` : 1.05

Value of measured total protein half-life in vivo for the entry MALLNVDKLSVHFGDESAPFRAVDRISYSVKQGEVVGIVGESGSGKSVSSLAIMGLIDYPGRVMAEKLEFNGQDLQRISEKERRNLVGAEVAMIFQDPMTSLNPCYTVGFQIMEAIKVHQGGNKSTRRQRAIDLLNQVGIPDPASRLDVYPHQLSGGMSQRVMIAMAIACRPKLLIADEPTTALDVTIQAQIIELLLELQQKENMALVLITHDLALVAEAAHKIIVMYAGQVVETGDAHAIFHAPRHPYTQALLRALPEFAQDKERLASLPGVVPGKYDRPNGCLLNPRCPYATDRCRAEEPALNMLADGRQSKCHYPLDDAGRPTL [P0AAG0] : 6.33

Value of measured total protein half-life in vivo for the entry `MSTLRLLISDSYDPWFNLAVEECIFRQMPATQRVLFLWRNADTVVIGRAQNPWKECNTRRMEEDNVRLARRSSGGGAVFHDLGNTCFTFMAGKPEYDKTISTSIVLNALNALGVSAEASGRNDLVVKTVEGDRKVSGSAYRETKDRGFHHGTLLLNADLSRLANYLNPDKKKLAAKGITSVRSRVTNLTELLPGITHEQVCEAITEAFFAHYGERVEAEIISPNKTPDLPNFAETFARQSSWEWNFGQAPAFSHLLDERFTWGGVELHFDVEKGHITRAQVFTDSLNPAPLEALAGRLQGCLYRADMLQQECEALLVDFPEQEKELRELSAWMAGAVR` : 4.23
